system: HCT-116 cell line; assay: Inhibition of cell growth, tetrazolium salt (MTT) assay; type: cell-based; conditions: 0.25 μM compound; HCT-116; Table 3

| Molecule | Readout unit | HCT-116 % Inhibition at 0.25 μM |
| --- | --- | --- |
| Nc1nc(NC2CCN(S(=O)(=O)c3cc(Cl)sc3Cl)CC2)sc1C(=O)c1c(F)cccc1F | % | 22 |
| Nc1nc(NC2CCN(S(=O)(=O)c3cc(S(=O)(=O)c4ccccc4)cs3)CC2)sc1C(=O)c1c(F)cccc1F | % | 26 |
| CC(C)c1ccc(S(=O)(=O)N2CCC(Nc3nc(N)c(C(=O)c4c(F)cccc4F)s3)CC2)cc1 | % | 16 |
| Cc1c(S(=O)(=O)N2CCC(Nc3nc(N)c(C(=O)c4c(F)cccc4F)s3)CC2)sc2ccc(Cl)cc12 | % | 30 |
| Nc1nc(NC2CCN(S(=O)(=O)c3ccc(Oc4ccccc4)cc3)CC2)sc1C(=O)c1c(F)cccc1F | % | 26 |
| Cn1nc(-c2ccc(S(=O)(=O)N3CCC(Nc4nc(N)c(C(=O)c5c(F)cccc5F)s4)CC3)s2)cc1C(F)(F)F | % | 25 |
| CC(=O)Nc1ccc(S(=O)(=O)N2CCC(Nc3nc(N)c(C(=O)c4c(F)cccc4F)s3)CC2)cc1 | % | 36 |
| Nc1nc(NC2CCN(S(=O)(=O)c3cccc(Br)c3)CC2)sc1C(=O)c1c(F)cccc1F | % | 20 |
| Nc1nc(NC2CCN(S(=O)(=O)c3ccc(S(=O)(=O)c4ccc(C(F)(F)F)cn4)s3)CC2)sc1C(=O)c1c(F)cccc1F | % | 17 |
| Cc1cccc(S(=O)(=O)N2CCC(Nc3nc(N)c(C(=O)c4c(F)cccc4F)s3)CC2)c1 | % | 27 |

###

biological target: human CDK4 and genetically truncated (1-264) cyclin D3 (Homo sapiens); test: Inhibition of CDK4/Cyclin D Retinoblastoma Kinase Activity; assay type: biochemical; settings: 0.03 μM compound; Table 4

| Compound | CDK4 % Inhibition at 0.03 μM [%] |
| --- | --- |
| Nc1nc(NC2CCN(C(=O)c3cccc4c3-c3ccccc3C4=O)CC2)sc1C(=O)c1c(F)cccc1F [Example Q74] | 19 |
| Nc1nc(NC2CCN(C(=O)c3c(F)cccc3F)CC2)sc1C(=O)c1c(F)cccc1F [Example Q12] | 22 |
| C/C=C/C(=O)N1CCC(Nc2nc(N)c(C(=O)c3c(F)cccc3F)s2)CC1 [Example Q46] | 25 |
| COC(=O)CCC(=O)N1CCC(Nc2nc(N)c(C(=O)c3c(F)cccc3F)s2)CC1 [Example Q49] | 24 |
| COCC(=O)N1CCC(Nc2nc(N)c(C(=O)c3c(F)cccc3F)s2)CC1 [Example Q42] | 20 |
| COc1cc(OC)cc(C(=O)N2CCC(Nc3nc(N)c(C(=O)c4c(F)cccc4F)s3)CC2)c1 [Example Q23] | 56 |
| Nc1nc(NC2CCN(C(=O)c3ccccc3F)CC2)sc1C(=O)c1c(F)cccc1F [Example Q11] | 57 |
| CC(=O)Oc1ccccc1C(=O)N1CCC(Nc2nc(N)c(C(=O)c3c(F)cccc3F)s2)CC1 [Example Q14] | 80 |
| Nc1nc(NC2CCN(C(=O)C(Cl)(c3ccccc3)c3ccccc3)CC2)sc1C(=O)c1c(F)cccc1F [Example Q51] | 22 |
| Nc1nc(NC2CCN(C(=O)c3ccc(Cl)c(Cl)c3)CC2)sc1C(=O)c1c(F)cccc1F [Example Q20] | 74 |

###

The entries below are paired with their reported HCT-116 % Inhibition at 0.1 μM.
test system: HCT-116 cell line; assay: Inhibition of cell growth, tetrazolium salt (MTT) assay; type: cell-based; details: 0.1 μM compound; HCT-116; Table 3

| Compound | Experimental system | HCT-116 % Inhibition at 0.1 μM [%] |
| --- | --- | --- |
| Nc1nc(NC2CCN(S(=O)(=O)c3cccc(Cl)c3Cl)CC2)sc1C(=O)c1c(F)cccc1F [Example P39] | HCT-116 cell line | 0 |
| Cc1cc(C)c(S(=O)(=O)N2CCC(Nc3nc(N)c(C(=O)c4c(F)cccc4F)s3)CC2)c(C)c1 [Example P10] | HCT-116 cell line | 14 |
| CC(=O)Nc1ccc(S(=O)(=O)N2CCC(Nc3nc(N)c(C(=O)c4c(F)cccc4F)s3)CC2)cc1 [Example P17] | HCT-116 cell line | 14 |
| Nc1nc(NC2CCN(S(=O)(=O)c3cc(OCC(F)(F)F)ccc3OCC(F)(F)F)CC2)sc1C(=O)c1c(F)cccc1F [Example P54] | HCT-116 cell line | 22 |

###

molecular target: human CDK4 and genetically truncated (1-264) cyclin D3 (Homo sapiens, UniProt P11802); assay: Inhibition of CDK4/Cyclin D Retinoblastoma Kinase Activity; conditions: apparent Ki, CDK4/truncated cyclin D3, Rb fragment substrate, 25 μM ATP
Sequence (P11802 whole entry, the tested form may be a part): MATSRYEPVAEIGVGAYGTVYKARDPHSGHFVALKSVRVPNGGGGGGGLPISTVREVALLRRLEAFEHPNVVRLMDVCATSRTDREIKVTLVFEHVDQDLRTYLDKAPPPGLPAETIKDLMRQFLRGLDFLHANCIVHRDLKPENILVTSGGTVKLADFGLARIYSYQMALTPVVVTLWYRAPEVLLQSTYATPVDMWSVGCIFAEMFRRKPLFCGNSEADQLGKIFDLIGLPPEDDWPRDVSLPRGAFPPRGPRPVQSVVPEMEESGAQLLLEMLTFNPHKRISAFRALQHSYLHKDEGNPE
Sequence (P30281 1-264 partner): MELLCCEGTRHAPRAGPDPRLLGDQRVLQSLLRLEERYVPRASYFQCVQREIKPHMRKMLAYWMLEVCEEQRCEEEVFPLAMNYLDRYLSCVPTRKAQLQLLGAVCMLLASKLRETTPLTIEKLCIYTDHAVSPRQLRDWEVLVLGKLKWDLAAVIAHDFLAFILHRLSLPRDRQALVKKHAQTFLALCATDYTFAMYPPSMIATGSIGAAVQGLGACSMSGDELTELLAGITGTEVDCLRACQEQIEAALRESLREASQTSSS
Structures can show the parent of a compound that is named as a salt.
# note: boundary value 0.5 nM maps to condition not met; Ki below it maps to condition met

| Compound | Experimental system | Discrete label |
| --- | --- | --- |
| CN(C)CCN(C)c1ncc(S(=O)(=O)N2CCC(Nc3nc(N)c(C(=O)c4c(F)cccc4F)s3)CC2)cc1Br [Example G24] | human CDK4 and genetically truncated (1-264) cyclin D3 (Homo sapiens, UniProt P11802) | condition met |
| CN(CCS(=O)(=O)N1CCC(Nc2nc(N)c(C(=O)c3c(F)cccc3F)s2)CC1)C1CCCC1 [Example K30, Trifluoroacetic Acid Salt] | human CDK4 and genetically truncated (1-264) cyclin D3 (Homo sapiens, UniProt P11802) | condition not met |
| CC1(C)CN(c2ccc(S(=O)(=O)N3CCC(Nc4nc(N)c(C(=O)c5c(F)cccc5F)s4)CC3)cc2)CCN1 [Example G31] | human CDK4 and genetically truncated (1-264) cyclin D3 (Homo sapiens, UniProt P11802) | condition not met |
| N#Cc1ccc(S(=O)(=O)N2CC[C@H](Nc3nc(N)c(C(=O)c4c(F)cccc4F)s3)C2)cc1 [Example F40] | human CDK4 and genetically truncated (1-264) cyclin D3 (Homo sapiens, UniProt P11802) | condition not met |
| CN1CCC[C@H]1COc1ccc(S(=O)(=O)N2CCC(Nc3nc(N)c(C(=O)c4c(F)cccc4F)s3)CC2)cn1 [Example H12] | human CDK4 and genetically truncated (1-264) cyclin D3 (Homo sapiens, UniProt P11802) | condition met |

###

test system: HCT-116 cell line; test: Inhibition of cell growth, tetrazolium salt (MTT) assay; format: cell-based; settings: Homo sapiens, HCT-116, 120 h, first HCT-116 column (c4); MTT, three to five days; read-out: HCT-116 IC50
Where a name gives a salt, the structure may show the parent alone.

| Compound | Reported relation | IC50, µM |
| --- | --- | --- |
| Cc1ncc(-c2ccc(S(=O)(=O)N3CCC(Nc4nc(N)c(C(=O)c5c(F)cccc5F)s4)CC3)cc2)[nH]1 [Example F33, Dihydrochloride] | = | 0.16 |
| Nc1nc(NC2CCN(S(=O)(=O)CCCNCc3ccc(F)cc3)CC2)sc1C(=O)c1c(F)cccc1F | = | 0.07 |
| Cc1cncn1-c1ccc(S(=O)(=O)N2CCC(Nc3nc(N)c(C(=O)c4c(F)cccc4F)s3)CC2)cn1 [Example G28, Hydrochloride] | = | 0.16 |
| CC1=NC(C)CN1c1ccc(S(=O)(=O)N2CCC(Nc3nc(N)c(C(=O)c4c(F)cccc4F)s3)CC2)cn1 (centres unmarked) [Example G23, Hydrochloride] | = | 0.75 |
| CS(=O)(=O)N1CCCC(Nc2nc(N)c(C(=O)c3c(F)cccc3F)s2)C1 (centres unmarked) | = | 0.7 |
| Nc1nc(NC2CCN(S(=O)(=O)c3ccc(Sc4ccccn4)nc3)CC2)sc1C(=O)c1c(F)cccc1F [Example L2, Dihydrochloride] | > | 0.5 |
| CN1CC[C@@H](Oc2ccc(S(=O)(=O)N3CCC(Nc4nc(N)c(C(=O)c5c(F)cccc5F)s4)CC3)cn2)C1 [Example H27, Hydrochloride] | = | 0.08 |
| Nc1nc(NC2CCN(S(=O)(=O)c3ccc(OCCO)nc3)CC2)sc1C(=O)c1c(F)cccc1F | = | 0.1 |

###

biological target: human CDK4 and genetically truncated (1-264) cyclin D3 (Homo sapiens); assay: Inhibition of CDK4/Cyclin D Retinoblastoma Kinase Activity; assay type: biochemical; settings: at 0.03 μM
Metric: CDK4 % Inhibition at 0.03 μM (%)

| Molecule | Value observed |
| --- | --- |
| Cn1nc(C(C)(C)C)cc1C(=O)N1CCC(Nc2nc(N)c(C(=O)c3c(F)cccc3F)s2)CC1 | 69 |
| Nc1nc(NC2CCN(C(=O)C3(c4ccc(Cl)cc4)CC3)CC2)sc1C(=O)c1c(F)cccc1F | 14 |
| Nc1nc(NC2CCN(C(=O)CCC3CCCC3)CC2)sc1C(=O)c1c(F)cccc1F | 17 |
| COc1cc(C(=O)N2CCC(Nc3nc(N)c(C(=O)c4c(F)cccc4F)s3)CC2)ccc1C | 67 |
| COc1c(C(=O)N2CCC(Nc3nc(N)c(C(=O)c4c(F)cccc4F)s3)CC2)csc1Br | 44 |
| Cc1ccc(S(=O)(=O)CC(=O)N2CCC(Nc3nc(N)c(C(=O)c4c(F)cccc4F)s3)CC2)cc1 | 24 |
| CCCC(CCC)C(=O)N1CCC(Nc2nc(N)c(C(=O)c3c(F)cccc3F)s2)CC1 | 37 |
| CNc1ccc(C(=O)N2CCC(Nc3nc(N)c(C(=O)c4c(F)cccc4F)s3)CC2)cc1 | 78 |
| COc1ccc(C=CC(=O)N2CCC(Nc3nc(N)c(C(=O)c4c(F)cccc4F)s3)CC2)c(Cl)c1OC | 59 |
| Nc1nc(NC2CCN(C(=O)c3ccc(Cl)cc3Cl)CC2)sc1C(=O)c1c(F)cccc1F | 63 |
| Cc1cc(C)c2c(c1C(=O)N1CCC(Nc3nc(N)c(C(=O)c4c(F)cccc4F)s3)CC1)CC(C)(C)C2=O | 23 |
| Nc1nc(NC2CCN(C(=O)c3ccccc3-c3ccccc3)CC2)sc1C(=O)c1c(F)cccc1F | 39 |
| CC12CCC(C(=O)N3CCC(Nc4nc(N)c(C(=O)c5c(F)cccc5F)s4)CC3)(OC1=O)C2(C)C (stereo not shown) | 22 |
| Nc1nc(NC2CCN(C(=O)c3ccccc3OC(F)(F)F)CC2)sc1C(=O)c1c(F)cccc1F | 34 |
| CNc1ccccc1C(=O)N1CCC(Nc2nc(N)c(C(=O)c3c(F)cccc3F)s2)CC1 | 21 |
| CCC(C(=O)N1CCC(Nc2nc(N)c(C(=O)c3c(F)cccc3F)s2)CC1)c1ccccc1 (stereo not shown) [Example R163] | 28 |
| Nc1nc(NC2CCN(C(=O)c3ccc(-c4ccccc4)cc3)CC2)sc1C(=O)c1c(F)cccc1F | 51 |
| COc1ccc(C(=O)N2CCC(Nc3nc(N)c(C(=O)c4c(F)cccc4F)s3)CC2)c(OC)c1 [Example R116] | 67 |
| Nc1nc(NC2CCN(C(=O)c3cc(Cl)cc(Cl)c3)CC2)sc1C(=O)c1c(F)cccc1F | 51 |
| Cc1ccc(C(=O)N2CCC(Nc3nc(N)c(C(=O)c4c(F)cccc4F)s3)CC2)cc1 | 63 |
| Nc1nc(NC2CCN(C(=O)c3ccc(F)cc3C(F)(F)F)CC2)sc1C(=O)c1c(F)cccc1F | 17 |
| Nc1nc(NC2CCN(C(=O)c3ccc(Cl)cc3)CC2)sc1C(=O)c1c(F)cccc1F | 46 |
| Nc1nc(NC2CCN(C(=O)C3CC3)CC2)sc1C(=O)c1c(F)cccc1F | 5 |
| CS(=O)(=O)c1csc(C(=O)N2CCC(Nc3nc(N)c(C(=O)c4c(F)cccc4F)s3)CC2)c1Cl | 59 |
| Cc1ccc(C(=O)N2CCC(Nc3nc(N)c(C(=O)c4c(F)cccc4F)s3)CC2)cc1F | 58 |
| Cc1cccc(C(=O)N2CCC(Nc3nc(N)c(C(=O)c4c(F)cccc4F)s3)CC2)c1 | 69 |
| COc1ccc(CCC(=O)N2CCC(Nc3nc(N)c(C(=O)c4c(F)cccc4F)s3)CC2)cc1 | 4 |
| CCc1ccc(C(=O)N2CCC(Nc3nc(N)c(C(=O)c4c(F)cccc4F)s3)CC2)cc1 | 47 |

src = patent US20050101595A1
